# assayed-target: HLA-B*08:01
# procedure-text: IEDB peptide-MHC binding, purified MHC/direct/fluorescence; filed as Kd, often an IC50 or EC50 that approximates it; bounds were set here for any values at or beyond the usual limits of such assays
# test-parameters: source organism: Giardia lamblia ATCC 50803
metric: Kd

Entry under review: IARLVYKAR . Reported Kd? ≥ 20 µM

----------
# assayed-target: HLA-B*58:01
# procedure-text: IEDB peptide-MHC binding, purified MHC/direct/fluorescence; filed as Kd, often an IC50 or EC50 that approximates it; bounds were set here for any values at or beyond the usual limits of such assays
# test-parameters: source organism: Mycobacterium tuberculosis
Here the recorded Kd is given for each entry.

// Kd lookup, key: RPPMVTSGL ≥ 20 µM

Entry MPRLSRNAA : reported Kd = ? ≥ 20 µM

Recorded Kd for KSRRFTVRF , please? 0.422 µM

----------
# assayed-target: HLA-A*03:01
# procedure-text: IEDB peptide-MHC binding, purified MHC/direct/fluorescence; filed as Kd, often an IC50 or EC50 that approximates it; bounds were set here for any values at or beyond the usual limits of such assays
# test-parameters: source organism: Yersinia enterocolitica
metric: Kd

Can you look up the measured Kd of YIFRNTINM for me? ≥ 20 µM

----------
# assayed-target: HLA-B*07:02
# procedure-text: IEDB peptide-MHC binding, purified MHC/competitive/radioactivity; filed as Kd, often an IC50 or EC50 that approximates it; bounds were set here for any values at or beyond the usual limits of such assays
# test-parameters: source organism: Dengue virus 1 Singapore/S275/1990
metric: pKd
The value called pKd is obtained by taking minus log10 of the concentration in mol/L.

Sample TPKAKRGTAQ — what was its pKd? 5.85

----------
# assayed-target: HLA-A*11:01
# procedure-text: IEDB peptide-MHC binding, purified MHC/competitive/radioactivity; filed as Kd, often an IC50 or EC50 that approximates it; bounds were set here for any values at or beyond the usual limits of such assays
# test-parameters: source organism: Mammarenavirus machupoense
pKd: −log10 of the molar value.
metric: pKd

Can you look up the measured pKd of EKFGHLCKYH for me? ≤ 4.16

----------
# assayed-target: HLA-A*01:01
# procedure-text: IEDB peptide-MHC binding, purified MHC/direct/fluorescence; filed as Kd, often an IC50 or EC50 that approximates it; bounds were set here for any values at or beyond the usual limits of such assays
# test-parameters: source organism: Camelpox virus M-96
# reported Kd; entries follow

# sequence-chain, value-reported
data = [
    ("WENGFKVVL", "≥ 20 µM"),
    ("MTDLSKKGY", "0.0028 µM"),
]

--- query ---
Requested field: Kd. Item: LLRDKDGVY ≥ 20 µM

----------
# assayed-target: HLA-A*31:01
# procedure-text: IEDB peptide-MHC binding, purified MHC/direct/fluorescence; filed as Kd, often an IC50 or EC50 that approximates it; bounds were set here for any values at or beyond the usual limits of such assays
# test-parameters: source organism: Yersinia pestis
metric: Kd (nM)
Quick reminder: number only, in nM, skip the unit.

Given the entry RYQRMTGGY , report its measured Kd. 388

----------
# assayed-target: HLA-A*26:01
# procedure-text: IEDB peptide-MHC binding, purified MHC/direct/fluorescence; filed as Kd, often an IC50 or EC50 that approximates it; bounds were set here for any values at or beyond the usual limits of such assays
# test-parameters: source organism: Burkholderia mallei ATCC 23344
pKd: −log10 of the molar value.
metric: pKd

# sequence-chain, assayed-target, value-reported
measured = [
    ("FEIGNGDAG", "HLA-A*26:01", "≤ 4.70"),
]

Now look at this one.
Which value of pKd has been reported for LARFPCNVI in the records? ≤ 4.70

----------
# assayed-target: HLA-A*68:01
# procedure-text: IEDB peptide-MHC binding, purified MHC/competitive/radioactivity; filed as Kd, often an IC50 or EC50 that approximates it; bounds were set here for any values at or beyond the usual limits of such assays
# test-parameters: source organism: Mammarenavirus juninense
metric: Kd (µM)
# number only, unit µM dropped from output

Given SKQYIHCFRK , state its recorded Kd. 2.54

----------
# assayed-target: HLA-A*80:01
# procedure-text: IEDB peptide-MHC binding, purified MHC/direct/fluorescence; filed as Kd, often an IC50 or EC50 that approximates it; bounds were set here for any values at or beyond the usual limits of such assays
# test-parameters: source organism: Camelpox virus M-96
metric: Kd

Reported Kd for MTDLSKKGY : what is it? ≥ 20 µM

----------
# assayed-target: HLA-A*69:01
# procedure-text: IEDB peptide-MHC binding, purified MHC/direct/fluorescence; filed as Kd, often an IC50 or EC50 that approximates it; bounds were set here for any values at or beyond the usual limits of such assays
# test-parameters: source organism: Salmonella enterica subsp. enterica serovar Typhimurium
metric: Kd

Return reported Kd; argument: NSDYMMWVG ≥ 20 µM

----------
# assayed-target: HLA-B*15:01
# procedure-text: IEDB peptide-MHC binding, purified MHC/direct/fluorescence; filed as Kd, often an IC50 or EC50 that approximates it; bounds were set here for any values at or beyond the usual limits of such assays
# test-parameters: source organism: West Nile virus
metric: Kd

Fill blank: measured Kd of the sequence TRAVGKPLL is ____. ≥ 20 µM

----------
# assayed-target: HLA-B*45:06
# procedure-text: IEDB peptide-MHC binding, purified MHC/competitive/fluorescence; filed as Kd, often an IC50 or EC50 that approximates it; bounds were set here for any values at or beyond the usual limits of such assays
# test-parameters: source organism: Brucella suis 1330
metric: Kd

What value of Kd has been recorded for this entry: RQNAPFEPI ≥ 5 µM

----------
# assayed-target: HLA-A*02:17
# procedure-text: IEDB peptide-MHC binding, purified MHC/competitive/radioactivity; filed as Kd, often an IC50 or EC50 that approximates it; bounds were set here for any values at or beyond the usual limits of such assays
# test-parameters: source organism: Dengue virus 2 Jamaica/1409/1983
Some sequences, each annotated with its measured Kd.
Answer format: numeric, nM implied, no suffix.

Example cases with answers are listed next.
# sequence-chain, assayed-target, Kd, nM
records = [
    ("LMMRTTWAL", "HLA-A*02:17", 35.9),
    ("TIMAAILAYT", "HLA-A*02:17", 12200),
    ("IILEFFLIV", "HLA-A*02:17", 89.8),
]

Notebook: pull reported Kd for HLA-A*02:17, entry MLLILCVTQV 158

----------
# assayed-target: HLA-A*02:19
# procedure-text: IEDB peptide-MHC binding, purified MHC/competitive/fluorescence; filed as Kd, often an IC50 or EC50 that approximates it; bounds were set here for any values at or beyond the usual limits of such assays
# test-parameters: source organism: Bacillus licheniformis
metric: pKd
By convention, pKd is the negative base-10 log of a molar concentration.

Bench note: what pKd did RLIWSHHHI show? 7.06

----------
# assayed-target: HLA-A*29:02
# procedure-text: IEDB peptide-MHC binding, purified MHC/competitive/radioactivity; filed as Kd, often an IC50 or EC50 that approximates it; bounds were set here for any values at or beyond the usual limits of such assays
# test-parameters: source organism: Mammarenavirus brazilense
metric: Kd (µM)
Could you give me the number in µM? Just the number is fine.

Quick check: Kd of TADDITMGY ? 11.3

----------
# assayed-target: HLA-A*02:16
# procedure-text: IEDB peptide-MHC binding, purified MHC/direct/fluorescence; filed as Kd, often an IC50 or EC50 that approximates it; bounds were set here for any values at or beyond the usual limits of such assays
# test-parameters: source organism: Choclo virus
pKd: −log10 of the molar value.
metric: pKd

Quick one: pKd of KACDLAMCY ? ≤ 4.70

----------
# assayed-target: HLA-A*02:03
# procedure-text: IEDB peptide-MHC binding, purified MHC/competitive/radioactivity; filed as Kd, often an IC50 or EC50 that approximates it; bounds were set here for any values at or beyond the usual limits of such assays
# test-parameters: source organism: Dengue virus 2 Peru/IQT2913/1996
metric: pKd
Value format note: pKd is -log10 of concentration (mol/L); just state the number.

Endpoint output: pKd of GMIIMLIPTV . Value? 8.35

----------
# assayed-target: HLA-B*27:05
# procedure-text: IEDB peptide-MHC binding, purified MHC/competitive/fluorescence; filed as Kd, often an IC50 or EC50 that approximates it; bounds were set here for any values at or beyond the usual limits of such assays
# test-parameters: source organism: Escherichia coli 536
metric: Kd

Lab note: need Kd with HLA-B*27:05 for entry GKVERMVQY , please look it up. ≥ 20 µM

----------
# assayed-target: HLA-A*03:01
# procedure-text: IEDB peptide-MHC binding, purified MHC/competitive/fluorescence; filed as Kd, often an IC50 or EC50 that approximates it; bounds were set here for any values at or beyond the usual limits of such assays
# test-parameters: source organism: Influenza A virus (A/Swine/Minnesota/55551/2000(H1N2))
metric: Kd

// Kd lookup, key: VTRFESLK ≥ 20 µM
